# TEST_NAME: Pharmacokinetics after intravenous and oral administration in rats
# Assay type: in vivo
# CONDITIONS_USED: rat, plasma, iv dosing, dose 1 mg/kg, read-out: Vss
# Procedure: The LC/MS/MS system used in the analysis consists of an Agilent 1200 Series vacuum degasser, binary pump, well-plate autosampler, thermostatted column compartment, the Agilent G6430 Triple Quadrupole Mass Spectrometer with an electrosprayionization (ESI) source. Quantitative analysis was carried out using MRM mode. The parameters for MRM transitions are in the Table A. […] The compounds disclosed herein are assessed in pharmacokinetic studies in mice, rats, dogs or monkeys. […]
What Vd was measured for each of the following?
One number for each entry, in L/kg.

Here's what some known entries look like.
CC(CF)CS(=O)(=O)N[C@H]1COC2C1OC[C@H]2Nc1nc(Nc2cnn(C)c2)ncc1Cl (stereo partly shown) [Ex. 37] :: 0.86
Cn1cc(Nc2ncc(Cl)c(N[C@@H]3COC4C3OC[C@@H]4N3CCCS3(=O)=O)n2)cn1 (stereo partly shown) [Ex. 12] :: 1.98

Could you tell me Vd for each of these compounds? They are listed below.
1. CC(CS(=O)(=O)N[C@H]1COC2C1OC[C@H]2Nc1nc(Nc2cnn(C)c2)ncc1Cl)C(F)F (stereo partly shown) [Ex. 42]
2. Cn1cc(Nc2ncc(Cl)c(N[C@@H]3COC4C3OC[C@@H]4N3CCCC3=O)n2)cn1 (stereo partly shown) [Ex. 22]
3. Cn1cc(Nc2ncc(Cl)c(N[C@@H]3COC4C3OC[C@@H]4NS(=O)(=O)Cc3ccccc3)n2)cn1 (stereo partly shown) [Ex. 19]

**A:**
1. 1.37
2. 1.06
3. 2.37

List the reported Vd of each compound below.
1. Cn1cc(Nc2ncc(Cl)c(N[C@@H]3COC4C3OC[C@@H]4NS(=O)(=O)CC3CCCO3)n2)cn1 (stereo partly shown) [Ex. 34]
2. Cn1cc(Nc2ncc(Cl)c(N[C@@H]3COC4C3OC[C@@H]4NS(=O)(=O)c3ccc(F)cc3)n2)cn1 (stereo partly shown) [Ex. 8]
3. Cn1cc(Nc2ncc(Cl)c(N[C@@H]3COC4C3OC[C@@H]4NS(=O)(=O)C3CCCC3)n2)cn1 (stereo partly shown) [Ex. 14]
4. Cn1cc(Nc2ncc(Cl)c(N[C@@H]3COC4C3OC[C@@H]4NS(=O)(=O)C3CC3)n2)cn1 (stereo partly shown) [Ex. 4]

**A:**
[1.23, 1.87, 1.08, 0.69]

Please give Vd for each item listed below.
1. Cn1cc(Nc2ncc(Cl)c(N[C@@H]3COC4C3OC[C@@H]4NS(=O)(=O)CC3CCCC3)n2)cn1 (stereo partly shown) [Ex. 21]
2. Cn1cc(Nc2ncc(Cl)c(N[C@@H]3COC4C3OC[C@@H]4NS(=O)(=O)C3CCOC3)n2)cn1 (stereo partly shown) [Ex. 20]
3. Cn1cc(Nc2ncc(Cl)c(N[C@@H]3COC4C3OC[C@@H]4NS(=O)(=O)CC(C)(F)F)n2)cn1 (stereo partly shown) [Ex. 38]
4. Cn1cc(Nc2ncc(Cl)c(N[C@H]3COC4C3OC[C@H]4NS(=O)(=O)CC(F)(F)F)n2)cn1 (stereo partly shown) [Ex. 5]
5. Cn1cc(Nc2ncc(Cl)c(N[C@@H]3COC4C3OC[C@@H]4NS(=O)(=O)CC(C)(C)C#N)n2)cn1 (stereo partly shown) [Ex. 26]
6. Cn1cc(Nc2ncc(Cl)c(N[C@@H]3COC4C3OC[C@@H]4NS(=O)(=O)CC(C)(C)O)n2)cn1 (stereo partly shown) [Ex. 41]

**A:**
1: 0.69; 2: 1.41; 3: 0.69; 4: 2.01; 5: 0.75; 6: 1.64

**Q:** Which Vd is listed for CC(C)S(=O)(=O)N[C@H]1COC2C1OC[C@H]2Nc1nc(Nc2cnn(C)c2)ncc1Cl (stereo partly shown) [Ex. 15] ?
**A:** 1.11
